From: patent US20250295799A1

So I've got a bunch of binders here, and I need their pKd values.
target_or_system: T1, recombinant human GPC3 (glypican-3) (human, UniProt P51654 25-559)
T1 construct: also called huGPC3; hGPC3
assay_method_text: SPR (Biacore T200), antibody captured by anti-Fc, GPC3 injected, single-cycle kinetics, 1:1 fit; average
Scale explanation: pKd corresponds to minus log10 of a concentration expressed in moles per litre.

Give me measured pKd, please, for this binder: v40213, H18L6_LC_N33E mAb (antibody, human IgG1, kappa, V domains shown, no number given for this variant) VH: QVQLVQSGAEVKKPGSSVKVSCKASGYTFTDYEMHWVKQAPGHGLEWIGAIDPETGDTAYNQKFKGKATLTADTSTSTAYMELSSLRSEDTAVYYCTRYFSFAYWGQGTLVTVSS VL: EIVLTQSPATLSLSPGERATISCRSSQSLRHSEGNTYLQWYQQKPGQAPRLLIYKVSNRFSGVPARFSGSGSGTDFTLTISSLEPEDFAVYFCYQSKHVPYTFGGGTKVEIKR 7.64

Give pKd for the following binder: v40203, H18L6_LC_G34D mAb (antibody, human IgG1, kappa, V domains shown) VH: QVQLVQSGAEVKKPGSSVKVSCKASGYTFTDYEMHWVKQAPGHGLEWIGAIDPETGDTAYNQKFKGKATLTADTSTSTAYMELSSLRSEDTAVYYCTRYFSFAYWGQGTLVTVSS VL: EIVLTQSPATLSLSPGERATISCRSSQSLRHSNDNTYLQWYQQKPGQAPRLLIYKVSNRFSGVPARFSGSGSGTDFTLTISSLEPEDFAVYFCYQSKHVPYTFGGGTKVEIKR 7.86

Supply reported pKd belonging to this binder: v40215, H18L6_LC_N33V mAb (antibody, human IgG1, kappa, V domains shown, no number given for this variant) VH: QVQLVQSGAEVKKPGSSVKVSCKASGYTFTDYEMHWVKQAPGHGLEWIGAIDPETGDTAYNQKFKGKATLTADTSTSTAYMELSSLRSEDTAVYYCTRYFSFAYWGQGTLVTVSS VL: EIVLTQSPATLSLSPGERATISCRSSQSLRHSVGNTYLQWYQQKPGQAPRLLIYKVSNRFSGVPARFSGSGSGTDFTLTISSLEPEDFAVYFCYQSKHVPYTFGGGTKVEIKR 7.65

Assign pKd to the following record: v40209, H18L6_LC_G34T mAb (antibody, human IgG1, kappa, V domains shown, no number given for this variant) VH: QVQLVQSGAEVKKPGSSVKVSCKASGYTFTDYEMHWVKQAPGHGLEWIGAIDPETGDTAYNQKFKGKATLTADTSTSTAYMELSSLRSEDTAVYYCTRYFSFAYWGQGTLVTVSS VL: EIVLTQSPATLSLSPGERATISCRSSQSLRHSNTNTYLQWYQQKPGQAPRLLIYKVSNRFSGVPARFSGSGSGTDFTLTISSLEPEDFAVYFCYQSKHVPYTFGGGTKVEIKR 7.95

Let me know recorded pKd for v40211, H18L6_LC_G34V mAb (antibody, human IgG1, kappa, V domains shown, no number given for this variant) VH: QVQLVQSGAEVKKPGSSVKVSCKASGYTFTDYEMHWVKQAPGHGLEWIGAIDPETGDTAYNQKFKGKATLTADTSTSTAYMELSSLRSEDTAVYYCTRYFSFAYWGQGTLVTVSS VL: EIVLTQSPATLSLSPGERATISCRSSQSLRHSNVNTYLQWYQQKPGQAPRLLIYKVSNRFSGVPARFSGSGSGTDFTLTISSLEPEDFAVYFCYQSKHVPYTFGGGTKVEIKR , thanks. 7.68

Report pKd, nothing else, for this binder: v40221, H18L6_LC_N33S mAb (antibody, human IgG1, kappa, V domains shown, no number given for this variant) VH: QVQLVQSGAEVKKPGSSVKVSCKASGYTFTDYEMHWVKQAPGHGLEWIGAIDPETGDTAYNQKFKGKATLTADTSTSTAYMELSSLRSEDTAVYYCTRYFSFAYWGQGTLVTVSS VL: EIVLTQSPATLSLSPGERATISCRSSQSLRHSSGNTYLQWYQQKPGQAPRLLIYKVSNRFSGVPARFSGSGSGTDFTLTISSLEPEDFAVYFCYQSKHVPYTFGGGTKVEIKR 7.71
